# Protocol details: Chemical stability in NH3-EtOH (9:1, v/v) at room temperature assessed as time taken for complete hydrolysis
# Format: physicochemical
Metric name: Stability

Some compounds with recorded Stability:
Cc1cn([C@H]2C[C@H](O)[C@@H](COC(=O)c3ccccc3C(C)(C)C)O2)c(=O)[nH]c1=O :: > 24 h
Cc1ccccc1C(=O)OC[C@H]1O[C@@H](n2cc(C)c(=O)[nH]c2=O)C[C@@H]1O :: 24 h
Cc1cn([C@H]2C[C@H](O)[C@@H](COC(=O)C=C[Si](C)(C)C)O2)c(=O)[nH]c1=O :: 12 h

Lookup: // query Stability value for entry C[Si](C)(C)c1ccccc1C(=O)O[C@@H]1[C@H](O)[C@@H](CO)O[C@H]1n1ccc(=O)[nH]c1=O
Found: 48 h

Lookup: // query Stability value for entry Cc1cn([C@H]2C[C@H](O)[C@@H](COC(=O)c3ccccc3[Si](C)(C)C)O2)c(=O)[nH]c1=O
Found: > 24 h

###

# Protocol details: Chemical stability in NH3-EtOH (9:1, v/v) at 55 deg C assessed as time taken for complete hydrolysis
# Format: physicochemical
Below is a list of entries, each paired with its recorded Stability value.
Give just the numeric value; h need not be written.

Some compounds with recorded Stability:
Cc1ccccc1C(=O)OC[C@H]1O[C@@H](n2cc(C)c(=O)[nH]c2=O)C[C@@H]1O :: 10
C[Si](C)(C)c1ccccc1C(=O)O[C@@H]1[C@H](O)[C@@H](CO)O[C@H]1n1ccc(=O)[nH]c1=O :: 8

Now look at this one.
Lookup: // query Stability value for entry Cc1cn([C@H]2C[C@H](O)[C@@H](COC(=O)C=C[Si](C)(C)C)O2)c(=O)[nH]c1=O
Found: 4

###

# Protocol details: Chemical stability in 2 M NaOH/EtOH solution at room temperature assessed as time taken for complete hydrolysis
# Assay type: physicochemical
Below is a list of entries, each paired with its recorded Stability value.
Give just the numeric value; h need not be written.

Some compounds with recorded Stability:
Cc1ccccc1C(=O)OC[C@H]1O[C@@H](n2cc(C)c(=O)[nH]c2=O)C[C@@H]1O :: 0.25
Cc1cn([C@H]2C[C@H](O)[C@@H](COC(=O)c3ccccc3C(C)(C)C)O2)c(=O)[nH]c1=O :: 4

Now look at this one.
Lookup: // query Stability value for entry Cc1cn([C@H]2C[C@H](O)[C@@H](COC(=O)c3ccccc3[Si](C)(C)C)O2)c(=O)[nH]c1=O
Found: 4

###

Below is a list of entries, each paired with its recorded Stability value.
# Protocol details: Chemical stability in NH3-EtOH (9:1, v/v) at 55 deg C assessed as time taken for complete hydrolysis
# Assay type: physicochemical

Some compounds with recorded Stability:
Cc1cn([C@H]2C[C@H](O)[C@@H](COC(=O)c3ccccc3C(C)(C)C)O2)c(=O)[nH]c1=O :: > 24 h
C[Si](C)(C)c1ccccc1C(=O)Nc1ccn([C@H]2C[C@H](O)[C@@H](CO)O2)c(=O)n1 :: > 24 h

Now look at this one.
Lookup: // query Stability value for entry Cc1cn([C@H]2C[C@H](O)[C@@H](COC(=O)c3ccccc3[Si](C)(C)C)O2)c(=O)[nH]c1=O
Found: > 24 h
